B1: SPOPL (parent)
chain: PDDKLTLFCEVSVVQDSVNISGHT

# Variants of: B1
# test: protein stability index of a GFP-peptide fusion (GPS, HEK-293T) (PSI 1-6); higher = more stable;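 further: lentivirally expressed fusions sorted by FACS into six bins by GFP to DsRed ratio, PSI derived from sequencing read proportions per bin multiplied by bin number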
# conditions: c terminus: a fixed tail appended
measured-quantity: protein stability index
# print the numeric value only

[
  {
    "residue-string": "PDDKLTLFCEVSVVQDSENISGHT",
    "protein stability index": 3.04
  },
  {
    "residue-string": "PDDKLTLFCEVSVVQDEVNISGHT",
    "protein stability index": 2.99
  },
  {
    "residue-string": "PDDKLTLFCEVSVVSDSVNISGHT",
    "protein stability index": 2.44
  },
  {
    "residue-string": "PDDKLTLFCEVSVVTDSVNISGHT",
    "protein stability index": 2.31
  },
  {
    "residue-string": "PDDKLTLFCECSVVQDSVNISGHT",
    "protein stability index": 3.34
  },
  {
    "residue-string": "PDDKLTLFCEVSVVQDSVNISGTT",
    "protein stability index": 2.44
  }
]

Data request: Name the recorded protein stability index for PDDKLTLFCEVSVVQDSVNISGVT .
Data returned: 2.03

Data request: Then PDDKLTLFCEASVVQDSVNISGHT ?
Data returned: 4.34

Data request: Then PDDKLTLFCEVSVVQDSVNISGAT ?
Data returned: 2

Data request: Then PPDKLTLFCEVSVVQDSVNISGHT ?
Data returned: 2.71
